- Tested on: α-Glucosidase
- ASSAY_INFO: inhibition of human liver α-glucosidase
- Format: biochemical
- CONDITION: 1 mM inhibitor
Here the recorded % Inhibition of Glycosidase Activity, α-Glucosidase is given for each entry.
READOUT_NAME: % Inhibition of Glycosidase Activity, α-Glucosidase (%)

[
  {
    "MOLECULE": "NC[C@H]1O[C@H]([C@H](O)CO)[C@H](O)[C@@H]1O [Manhepamine (5)]",
    "ASSAY_RESULT": 0
  },
  {
    "MOLECULE": "OC[C@@H](O)[C@H]1NC[C@@H](O)[C@H]1O [DIM (3)]",
    "ASSAY_RESULT": 0
  },
  {
    "MOLECULE": "OC[C@H]1NC[C@@H](O)[C@@H](O)[C@@H]1O [DMJ (1), deoxymannojirimycin]",
    "ASSAY_RESULT": 21
  },
  {
    "MOLECULE": "OC[C@H]1N[C@H](CO)[C@@H](O)C(O)[C@@H]1O (some centres unmarked) [αHomoDMJ (2)]",
    "ASSAY_RESULT": 4
  },
  {
    "MOLECULE": "OC[C@@H](O)[C@H]1N[C@H](CO)[C@@H](O)[C@H]1O [αHomoDIM (4)]",
    "ASSAY_RESULT": 12
  }
]
